B1: DLC1 (parent)
chain: HVTHWMGQPFNSDDRNTACHHGLV

Variants of: B1
Test: protein stability index of a GFP-peptide fusion (GPS, HEK-293T) (PSI 1-6); higher = more stable;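 also: lentivirally expressed fusions sorted by FACS into six bins by GFP to DsRed ratio, PSI derived from sequencing read proportions per bin multiplied by bin number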
Conditions: c terminus: a fixed tail appended
Assign T to entries whose protein stability index meets or exceeds 2; assign F to the rest.

Query :: Determine whether this variant has protein stability index no lower than 2: `P9S`
Result :: T

Query :: Determine whether this variant has protein stability index no lower than 2: `M6C`
Result :: T

Query :: Determine whether this variant has protein stability index no lower than 2: `G7V`
Result :: F

Query :: Determine whether this variant has protein stability index no lower than 2: `V2Y`
Result :: T

Query :: Determine whether this variant has protein stability index no lower than 2: `T17N`
Result :: T

Query :: Determine whether this variant has protein stability index no lower than 2: `H20M`
Result :: F

Query :: Determine whether this variant has protein stability index no lower than 2: `V24K`
Result :: T
